measured.target: T1, Soluble heterodimeric CD3 protein (hCD3-epsilon/hCD3-delta) with either a human Fc tag (hFcΔAdp/hFc) or a … (human, UniProt P07766 23-126; P04234 22-105)
T1 construct: also called hCD3ε/δ; not shown: Fc tag: human (hFcΔAdp/hFc)
T1 sequence (P07766 23-126 limits assumed, stated change not applied, chain 1 of 2): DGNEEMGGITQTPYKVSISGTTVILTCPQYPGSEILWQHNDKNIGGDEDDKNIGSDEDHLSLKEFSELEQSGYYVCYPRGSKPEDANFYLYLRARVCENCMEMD
T1 sequence (P04234 22-105 limits assumed, stated change not applied, chain 2 of 2): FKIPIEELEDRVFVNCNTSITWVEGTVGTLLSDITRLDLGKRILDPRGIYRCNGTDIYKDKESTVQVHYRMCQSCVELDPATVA
assay.protocol: SPR Biacore 25C antibody-capture
T½ values, listed per item
Output spec: scalar in min, unitless text.

Documented T½ of H1H5756B (antibody, human IgG1, V domains shown, H1H: human IgG1 Fc; divalent) VH: EVQLVESGGGVVQPGRSLRLSCTASGFPFSRYGMHWVRQAPGKGLEWVTFIWYDGSNKYYADSAKGRFTITRDNSKNTVYLQMDSLRADDTAVYYCVRDQAALYYFDSWGQGTLVTVSS VL: DIQMTQSPSSVSASVGDRVTITCRASQGISRWLAWYQQKPGKAPKLLISAASSLQSGVPSRFSGSGSGTDFTLTISGLQPEDFATYYCQKANSFPFTFGPGTKLEIKR : 43

Documented T½ of H1H5778P (antibody, human IgG1, V domains shown, H1H: human IgG1 Fc; divalent) VH: EVQLVESGGGLVQPGRSLRLSCVASGFTFADFTMHWVRQAPGKGLEWVSGISWNSNSIDYADSVKGRFTISRDNAKKSLFLQMSSLRAEDTALYYCVKDRSGYSRFYYGMDVWGQGTTVTVSS VL: EIVMTQSPATLSVSPGERAILSCRASQNINSNLAWYQQKPGQAPRLLIYGASTRATGVPARFSGSGSGTEFTLTIRSLQSEDFAVYYCQQYYNWPITFGHGTRLEIK : 75

Documented T½ of H1H5795B (antibody, human IgG1, V domains shown, H1H: human IgG1 Fc; divalent) VH: EVQLVESGAEVKKPGASVKVSCKTSGYSFIGYYIHWMRQAPGQGLEWMGWINPKSGVTNYAQRFQGRVTMTRDTSISTAYMELSRLKSDDTAVYFCARMGDGAVFDFWGQGTLVTVSS VL: DIQLTQSPSSLSASVGDRVTITCRASQRISSFLNWYQQKPGKVPKLLIYTASNLQNGVPSRFSGTGSGTDFTLTISSLQPEDFATYYCQQSYRTPLTFGGGTKVDIKR : 20
